- System: A498
- assay info: NCI tumour cell line growth inhibition, 48 h
Activity calls are given as the source filed them. Rule as the data show it: active = GI50 up to about 1.1 µM and inactive = higher.
measurement name: GI50

Example results:
{"molecule": "N/C1=C/C(=O)NC(=O)c2c(c3ccccc3oc2=O)C1", "reported": "> 100 µM (inactive)"}
{"molecule": "CC(C)(C)OC(=O)NC(Cc1ccccc1)C(=O)OCN1C(=O)C2C3C=CC(C2C1=O)C1C2C(=O)N(COC(=O)C(Cc4ccccc4)NC(=O)OC(C)(C)C)C(=O)C2C31 (stereo not given)", "reported": "25.9 µM (inactive)"}

Lab note: each molecule below needs its GI50 filled in.
1. CCCC(=O)Nc1cc(/C=C/C(=O)N2CC(CCl)c3ccc(N)cc32)n(C)c1 (stereo not given)
2. COC(=O)/C=C(/C(=O)OC)c1c(C)cc2c(C)cc(C)cc(C)c1-2
3. CC(=O)OCC1(C)C(O)CCC2(C)C1CCC1CC3CC12CCC3(O)CO (stereo not given)

[reply]
1. 0.0223 µM (active)
2. 26.4 µM (inactive)
3. 0.541 µM (active)
